system-name: Bcl-2 protein (histag-Bcl-2, UniProtKB P10415) (Homo sapiens (Human), UniProt P10415)
Sequence (P10415 whole entry): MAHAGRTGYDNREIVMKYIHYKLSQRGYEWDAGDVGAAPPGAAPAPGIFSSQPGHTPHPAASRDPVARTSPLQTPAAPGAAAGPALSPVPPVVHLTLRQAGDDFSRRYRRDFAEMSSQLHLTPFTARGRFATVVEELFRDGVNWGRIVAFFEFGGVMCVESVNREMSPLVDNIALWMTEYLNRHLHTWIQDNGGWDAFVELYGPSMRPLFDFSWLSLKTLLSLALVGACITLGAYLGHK
assay-overview: Inhibition of Bcl-2 by the fluorescence polarisation technique
Format: binding
condition-parameters: fluorescence polarisation test; incubation for 2 hours; read-out: IC50 (nM) Bcl-2 FP
Structures can show the parent of a compound that is named as a salt.
Field: label. Allowed values: class 1 (IC50 < 4 nM) or class 0 (IC50 >= 4 nM).

Consider the following illustrative entries.
• Cc1c(C(=O)N(C)c2ccc(O)cc2)cc(-c2cc3c(cc2C(=O)N2Cc4ccccc4C[C@H]2CN2CCOCC2)CN(C(=O)Oc2cccc(C(=O)O)c2)CC3)n1C [Example 709] = class 0
• C[C@@H]1Cc2ccccc2CN1C(=O)c1cc2c(cc1-c1cc(C(=O)N(C)c3ccc(O)cc3)c3n1CCCC3)CCN(C(=O)OC(C)(C)C)C2 [Example 47] = class 0

Exercise: Determine if Cc1c(C(=O)N(C)c2ccc(O)cc2)cc(-c2cc3c(cc2C(=O)N2Cc4ccccc4C[C@H]2CN2CCOCC2)CN(C(=O)Oc2ccccc2)CC3)n1C [Example 88, hydrochloride] shows IC50 strictly lower than 4 nM.
Solution: class 1

Exercise: Now give it for Cc1c(C(=O)N(C)c2ccc(O)cc2)cc(-c2cc3c(cc2C(=O)N2Cc4ccccc4C[C@H]2CN2CCOCC2)CN(C(=O)/C=C/c2ccc(Cl)c(Cl)c2)CC3)n1C [Example 137] too.
Solution: class 0

Exercise: Now give it for CN(C(=O)c1cc(-c2cc3c(cc2C(=O)N2Cc4ccccc4C[C@H]2CN2CCOCC2)CN(C(=O)Oc2ccccc2)CC3)n2c1CCCC2)c1ccc(O)cc1 [Example 69, hydrochloride] too.
Solution: class 1

* * *

Reported IC50 values are given for each entry in this list.
Test system: RS4; 11 leukaemia cell line
assay-overview: In vitro cytotoxicity, Microculture Tetrazolium Assay (MTT)
Format: cell-based
condition-parameters: Homo sapiens, 11 cells exposed for 48 hours
Method: The cytotoxicity studies were carried out on the RS4; 11 leukaemia cell line and on H146 small Cell Lung Carcinoma cell line. The cells are distributed onto microplates and exposed to the test compounds for 48 hours. The cell viability is then quantified by a colorimetric assay, the Microculture Tetrazolium Assay (Cancer Res., 1987, 47, 939-942).
# value in nM; strip the unit string

Solved entries:
* CNC(=O)N1Cc2cc(C(=O)N3Cc4ccccc4C[C@H]3C)c(-c3cc(C(=O)N(C)c4ccc(O)cc4)c(C)n3C)cc2C1 | 491
* CCCCN(C(=O)c1cc(-c2cc3c(cc2C(=O)N2Cc4ccccc4C[C@H]2CN2CCOCC2)CN(C(=O)Oc2ccccc2)CC3)n(C)c1C)c1ccc(O)cc1 | 4.6
* C[C@@H]1Cc2ccccc2CN1C(=O)c1cc2c(cc1-c1cc(C(=O)N(C)c3ccc(O)cc3)c3n1CCCC3)CN(C(=O)CCC1CCCCC1)C2 | 141
* C[C@@H]1Cc2ccccc2CN1C(=O)c1cc2c(cc1-c1cc(C(=O)N(C)c3ccc(O)cc3)c3n1CCCC3)CCN(S(=O)(=O)Cc1ccccc1)C2 | 34
* C[C@@H]1Cc2ccccc2CN1C(=O)c1cc2c(cc1-c1cc(C(=O)N(C)c3ccc(O)cc3)c3n1CCCC3)CCN(C(=O)[C@H](C)c1ccccc1)C2 | 73

Turning now to a further record.
Exercise: Entry Cc1c(C(=O)N(C)c2ccc(O)cc2)cc(-c2cc3c(cc2C(=O)N2Cc4ccccc4C[C@H]2C)CN(C(=O)COCc2ccccc2)C3)n1C has what IC50?
Solution: 86

* * *

system-name: Bcl-2 protein (histag-Bcl-2, UniProtKB P10415) (Homo sapiens (Human), UniProt P10415)
assay-overview: Inhibition of Bcl-2 by the fluorescence polarisation technique
Assay type: binding
condition-parameters: fluorescence polarisation test; incubation for 2 hours; read-out: IC50 (nM) Bcl-2 FP
Reported IC50 values are given for each entry in this list.
I'd appreciate it if you included the unit after the number.

* Cc1c(C(=O)N(C)c2ccccc2)cc(-c2cc3c(cc2C(=O)N2Cc4ccccc4C[C@H]2C)CN(C(=O)Oc2cccc(OCCN(C)C)c2)CC3)n1C | 4 nM
* C[C@@H]1Cc2ccccc2CN1C(=O)c1cc2c(cc1-c1cc(C(=O)N(C)c3ccc(O)cc3)c3n1CCCC3)CCN(C(=O)N(C)c1ccccc1)C2 | 6.1 nM
* C[C@@H]1Cc2ccccc2CN1C(=O)c1cc2c(cc1-c1cc(C(=O)N(C)c3ccc(O)cc3)c3n1CCCC3)CN(C(=O)N(C)Cc1ccccc1)C2 | 6.1 nM

Exercise: Entry Cc1c(C(=O)N(C)c2ccc(O)cc2)cc(-c2cc3c(cc2C(=O)N2Cc4ccccc4C[C@H]2C)CN(C(=O)Oc2cccc(CCC(=O)N(C)C)c2)CC3)n1C has what IC50?
Solution: 2.2 nM

Exercise: Now give it for C[C@@H]1Cc2ccccc2CN1C(=O)c1cc2c(cc1-c1cc(C(=O)N(C)c3ccc(O)cc3)c3n1CCCC3)CN(C(=O)N(C)c1ccccc1)C2 too.
Solution: 17 nM

Exercise: Now give it for Cc1c(C(=O)N(C)c2ccc(O)cc2)cc(-c2cc3c(cc2C(=O)N2Cc4ccccc4C[C@H]2C)CN(C(=O)OC2CCC(NC(=O)OC(C)(C)C)CC2)CC3)n1C (some centres unmarked) too.
Solution: 2 nM

Exercise: Now give it for CN(C(=O)c1cc(-c2cc3c(cc2C(=O)N2Cc4ccccc4C[C@H]2CN2CCOCC2)CN(C(=O)Cc2ccccc2)CC3)n2c1CCCC2)c1ccc(O)cc1 too.
Solution: 5.1 nM

Exercise: Now give it for C[C@@H]1Cc2ccccc2CN1C(=O)c1cc2c(cc1-c1cc(C(=O)N(C)c3ccc(O)cc3)c3n1CCCC3)CN(C(=O)C1CC1)C2 too.
Solution: 20 nM

* * *

system-name: Bcl-2 protein (histag-Bcl-2, UniProtKB P10415) (Homo sapiens (Human), UniProt P10415)
assay-overview: Inhibition of Bcl-2 by the fluorescence polarisation technique
Assay type: binding
condition-parameters: fluorescence polarisation test; incubation for 2 hours; read-out: IC50 (nM) Bcl-2 FP
endpoint-name: IC50 (nM)
# value in nM; strip the unit string

Solved entries:
• C[C@@H]1Cc2ccccc2CN1C(=O)c1cc2c(cc1-c1cc(C(=O)N(C)c3ccc(O)cc3)c3n1CCCC3)CCN(C(=O)Cc1ccc(CN3CCN(C)CC3)cc1)C2 = 3.6
• CNC(=O)N1Cc2cc(C(=O)N3Cc4ccccc4C[C@H]3C)c(-c3cc(C(=O)N(C)c4ccc(O)cc4)c(C)n3C)cc2C1 = 12

Exercise: Entry CN(C(=O)c1cc(-c2cc3c(cc2C(=O)N2Cc4ccccc4C[C@H]2CN2CCOCC2)CN(S(=O)(=O)c2ccccc2)CC3)n2c1CCCC2)c1ccc(O)cc1 has what IC50?
Solution: 18

* * *

system-name: Bcl-2 protein (histag-Bcl-2, UniProtKB P10415) (Homo sapiens (Human), UniProt P10415)
assay-overview: Inhibition of Bcl-2 by the fluorescence polarisation technique
Type: binding
condition-parameters: fluorescence polarisation test; incubation for 2 hours; read-out: IC50 (nM) Bcl-2 FP
Source text: For partial inhibitors, the percentage fluorescence polarisation inhibition for a given concentration of the test compound is indicated.
Structures can show the parent of a compound that is named as a salt.
Reported IC50 values are given for each entry in this list.

Exercise: Entry C[C@@H]1Cc2ccccc2CN1C(=O)c1cc2c(cc1-c1cc(C(=O)N(C)c3ccc(O)cc3)c3n1CCCC3)CN(C(=O)Nc1ccc(N3CCN(C)CC3)cc1)C2 has what IC50?
Solution: 6.5 nM

Exercise: Now give it for Cc1c(C(=O)N(C)c2ccc(O)cc2)cc(-c2cc3c(cc2C(=O)N2Cc4ccccc4C[C@H]2C)CN(C(=O)OC2CCC(N)CC2)CC3)n1C (stereo partly drawn) [Example 801, hydrochloride] too.
Solution: 2.7 nM

Exercise: Now give it for Cc1c(C(=O)N(C)c2ccc(O)cc2)cc(-c2cc3c(cc2C(=O)N2Cc4ccccc4C[C@H]2CCCN2CCOCC2)CN(C(=O)OC2CCCCC2)CC3)n1C too.
Solution: 3.1 nM

* * *

Reported IC50 values are given for each entry in this list.
Tested on: RS4; 11 leukaemia cell line
assay-overview: In vitro cytotoxicity, Microculture Tetrazolium Assay (MTT)
Type: cell-based
condition-parameters: Homo sapiens, 11 cells exposed for 48 hours
# value in nM; strip the unit string

- C[C@@H]1Cc2ccccc2CN1C(=O)c1cc2c(cc1-c1cc(C(=O)N(c3ccc(O)cc3)c3cnc4c(ccn4C)c3)c3n1CCCC3)CN(C(=O)COc1ccccc1)C2 [Example 158]: 3.5
- C[C@@H]1Cc2ccccc2CN1C(=O)c1cc2c(cc1-c1cc(C(=O)N(C)c3ccc(O)cc3)c3n1CCCC3)CN(C(=O)COc1ccccc1)C2 [Example 52]: 56
- Cc1c(C(=O)N(C)c2ccc(O)cc2)cc(-c2cc3c(cc2C(=O)N2Cc4ccccc4C[C@H]2CN2CCOCC2)CN(C(=O)Oc2cnc4[nH]ccc4c2)CC3)n1C [Example 579]: 17
- Cc1c(C(=O)N(C)c2ccc(O)cc2)cc(-c2cc3c(cc2C(=O)N2Cc4ccccc4C[C@H]2CN2CCOCC2)CN(C(=O)Oc2cccc(C#N)c2)CC3)n1C [Example 560]: 70
- CNC(=O)N1Cc2cc(C(=O)N3Cc4ccccc4C[C@H]3C)c(-c3cc(C(=O)N(C)c4ccc(O)cc4)c4n3CCCC4)cc2C1 [Example 55]: 372

Exercise: Record lookup: for RS4; 11 leukaemia cell line, what IC50 belongs to CCc1ccc(OC(=O)N2CCc3cc(-c4cc(C(=O)N(C)c5ccc(O)cc5)c5n4CCCC5)c(C(=O)N4Cc5ccccc5C[C@H]4CN4CCOCC4)cc3C2)cc1 [Example 126] ?
Solution: 5.2

Exercise: Now give it for Cc1c(C(=O)N(C)c2ccc(O)cc2)cc(-c2cc3c(cc2C(=O)N2Cc4ccccc4C[C@H]2C)CN(C(=O)Cc2ccccc2)CC3)n1C [Example 75] too.
Solution: 6.2

Exercise: Now give it for Cc1c(C(=O)N(C)c2ccc(O)cc2)cc(-c2cc3c(cc2C(=O)N2Cc4ccccc4C[C@H]2CN2CCOCC2)CN(C(=O)Oc2ccc4[nH]ccc4c2)CC3)n1C [Example 577] too.
Solution: 4.7

Exercise: Now give it for CN(C(=O)c1cc(-c2cc3c(cc2C(=O)N2Cc4ccccc4C[C@H]2CN2CCOCC2)CN(C(=O)Nc2ccccc2)CC3)n2c1CCCC2)c1ccc(O)cc1 [Example 77] too.
Solution: 84
